The measured values listed here are drawn from patent US10076519B2.

Test system: rabbit skeletal myofibrils (fast skeletal myofibrils)
TEST DETAILS: Activation of fast skeletal myofibrils (PUMA assay, PK/LDH-coupled ATPase at pCa25)
Format: biochemical
CONDITION NOTES: AC1.4 determined according to the procedure of Example 39; reported as class symbols

COMPOUND: NC(=O)c1ccc(-c2ccc(NCC3(c4ncccc4F)CCC3)nn2)cc1
Mean AC1.4: B (B=1-10 uM)
--
COMPOUND: CC(C)(CNc1nnc(-c2cccc(C(N)=O)c2)cc1C#N)c1ccc(F)cc1
Mean AC1.4: C (C=10-20 uM)
--
COMPOUND: CC(C)(CNc1ccc(-c2ccc3[nH]cnc3c2)nn1)c1ccc(F)cc1
Mean AC1.4: A (A=<1 uM)
--
COMPOUND: CC(C)(CNc1ccc(-c2cccc(N)c2)nn1)c1ccc(F)cc1
Mean AC1.4: A (A=<1 uM)
--
COMPOUND: N#Cc1cncc(-c2ccc(NCC3(c4ccc(F)cc4)CC3)nn2)c1
Mean AC1.4: B (B=1-10 uM)
--
COMPOUND: N#Cc1ccnc(C2(CNc3ccc(-c4cc(C(N)=O)ccc4F)nn3)CCC2)c1
Mean AC1.4: B (B=1-10 uM)
--
COMPOUND: CNC(=O)c1cccc(-c2ccc(NCC(C)(C)c3ccc(F)cc3)nn2)c1
Mean AC1.4: B (B=1-10 uM)
--
COMPOUND: CC(C)(CNc1ccc(-c2n[nH]c(=O)o2)nn1)c1ccc(F)cc1
Mean AC1.4: C (C=10-20 uM)
--
COMPOUND: CC(CNc1ccc(-c2cccc(C(N)=O)c2)nn1)N1CCCCC1 (centres unmarked)
Mean AC1.4: D (D=>20 uM)
--
COMPOUND: CC(C)(CNc1ccc(-c2cccc3c(N)n[nH]c23)nn1)c1ccc(F)cc1
Mean AC1.4: B (B=1-10 uM)
--
COMPOUND: Nc1n[nH]c2ccc(-c3ccc(NCC4(c5ccccc5F)CCC4)nn3)cc12
Mean AC1.4: A (A=<1 uM)
--
COMPOUND: Fc1cccnc1C1(CNc2ccc(-c3ccc4[nH]cnc4c3)nn2)CCC1
Mean AC1.4: A (A=<1 uM)
--
COMPOUND: CC(C)(CNc1ccc(-c2noc(C(N)=O)n2)nn1)c1ccc(F)cc1
Mean AC1.4: C (C=10-20 uM)
--
COMPOUND: NC(=O)c1cccc(-c2ccc(NCC3(c4ncccc4F)CNC3)nn2)c1
Mean AC1.4: D (D=>20 uM)
--
COMPOUND: CC(C)(CNc1ccc(-c2ccc3[nH]nc(N)c3c2)nn1)c1cccc(CO)c1
Mean AC1.4: B (B=1-10 uM)
--
COMPOUND: CC(C)(CNc1ccc(-c2cc[nH]n2)nn1)c1ccc(F)cc1
Mean AC1.4: B (B=1-10 uM)
--
COMPOUND: CC1(C)CN(c2ccc(-c3cccc(C(N)=O)c3)nn2)c2ccccc21
Mean AC1.4: D (D=>20 uM)
--
COMPOUND: NC(=O)c1cccc(-c2ccc(NCC3(c4ncccc4F)CCC3)nn2)c1F
Mean AC1.4: B (B=1-10 uM)
--
COMPOUND: C[C@H](CNc1ccc(-c2cccc(C(N)=O)c2)nn1)c1ccc(F)cc1
Mean AC1.4: B (B=1-10 uM)
--
COMPOUND: N#Cc1ccnc(C2(CNc3ccc(-c4ccc5[nH]ncc5c4)nn3)CCC2)c1
Mean AC1.4: A (A=<1 uM)
--
COMPOUND: CC1(C)CC1(CNc1ccc(-c2ccc3[nH]nc(N)c3c2)nn1)c1ccccc1 (centres unmarked)
Mean AC1.4: A (A=<1 uM)
--
COMPOUND: CC(C)(CNc1ccc(C(=O)NC2(C(N)=O)CC2)nn1)c1ccc(F)cc1
Mean AC1.4: D (D=>20 uM)
--
COMPOUND: OCc1ccccc1-c1ccc(NCC2(c3ncccc3F)CCC2)nn1
Mean AC1.4: B (B=1-10 uM)
--
COMPOUND: CC(C)(CNc1ccc(-c2cccc(F)c2)nn1)c1ccc(F)cc1
Mean AC1.4: A (A=<1 uM)
--
COMPOUND: NC(=O)c1cccc(-c2ccc(NC3Cc4ccccc4C3)nn2)c1
Mean AC1.4: D (D=>20 uM)
--
COMPOUND: COC(=O)N1CC(CNc2ccc(-c3cccc(C(N)=O)c3)nn2)(c2ncccc2F)C1
Mean AC1.4: D (D=>20 uM)

----------
Test system: rabbit skeletal myofibrils (fast skeletal myofibrils)
TEST DETAILS: Activation of fast skeletal myofibrils (PUMA assay, PK/LDH-coupled ATPase at pCa25)
Format: biochemical
CONDITION NOTES: median AC1.4 class, procedure of Example 39

COMPOUND: N#Cc1cncc(-c2ccc(NCC3(c4ncccc4F)CCC3)nn2)n1
Mean AC1.4: B (B=1-10 uM)
--
COMPOUND: NC(CNC(=O)c1cnc(-c2ccc(NCC3(c4ncccc4F)CCC3)nn2)s1)C(F)(F)F (stereo not shown)
Mean AC1.4: B (B=1-10 uM)
--
COMPOUND: NC(=O)c1ccc(O)c(-c2ccc(NC[C@]3(c4ncccc4F)C[C@H](F)C3)nn2)c1
Mean AC1.4: B (B=1-10 uM)
--
COMPOUND: Fc1cccnc1C1(CNc2ccc(-c3cccc(F)c3F)nn2)CCC1
Mean AC1.4: A (A=<1 uM)
--
COMPOUND: Fc1cccnc1C1(CNc2ccc(-c3ccccc3)nn2)CCC1
Mean AC1.4: A (A=<1 uM)
--
COMPOUND: O=C(NC1CCNC1)c1cnc(-c2ccc(NCC3(c4ncccc4F)CCC3)nn2)s1 (stereo not shown)
Mean AC1.4: A (A=<1 uM)

----------
Tested on: rabbit skeletal myofibrils (fast skeletal myofibrils)
TEST DETAILS: Activation of fast skeletal myofibrils (PUMA assay, PK/LDH-coupled ATPase at pCa25)
Type: biochemical
CONDITION NOTES: AC1.4 determined according to the procedure of Example 39; reported as class symbols

COMPOUND: NC(=O)c1cccc(-c2ccc(NCC(CC3OCCO3)c3ccccc3F)nn2)c1 (stereo not drawn)
Mean AC1.4: D (D=>20 uM)
--
COMPOUND: Nc1n[nH]c2ccc(-c3ccc(NCC4(c5ccc(F)cc5)CCCCC4)nn3)cc12
Mean AC1.4: A (A=<1 uM)
--
COMPOUND: Cc1nc2cc(-c3ccc(NCC(C)(C)c4ccc(F)cc4)nn3)ccc2o1
Mean AC1.4: B (B=1-10 uM)
--
COMPOUND: NC(=O)c1ccnc(C2(CNc3ccc(-c4cc(C(N)=O)ccc4F)nn3)CCC2)c1
Mean AC1.4: D (D=>20 uM)
--
COMPOUND: NC(=O)c1ccc(-c2ccc(NCC3(c4ncccc4F)CCC3)nn2)c(F)c1
Mean AC1.4: B (B=1-10 uM)
--
COMPOUND: CC(=O)N1CC=C(c2ccc(NCC(C)(C)c3ccc(F)cc3)nn2)CC1
Mean AC1.4: D (D=>20 uM)
--
COMPOUND: CC(C)(CNc1ccc(-c2cccc(C(N)=O)c2)nn1)c1ccc(F)cc1
Mean AC1.4: A (A=<1 uM)
--
COMPOUND: NCCNc1n[nH]c2ccc(-c3ccc(NCC4(c5ncccc5F)CCC4)nn3)cc12
Mean AC1.4: A (A=<1 uM)
--
COMPOUND: CC(C)(CNc1ccc(C(=O)N2CCN(C(N)=O)CC2)nn1)c1ccc(F)cc1
Mean AC1.4: D (D=>20 uM)
--
COMPOUND: CC(C)(CNc1ccc(-c2cccnc2)nn1)c1ccccc1Cl
Mean AC1.4: B (B=1-10 uM)
--
COMPOUND: CC(C)(CNc1ccc(-c2ccc3[nH]c(=O)[nH]c3c2)nn1)c1ccc(F)cc1
Mean AC1.4: A (A=<1 uM)

----------
Test system: rabbit skeletal myofibrils (fast skeletal myofibrils)
TEST DETAILS: Activation of fast skeletal myofibrils (PUMA assay, PK/LDH-coupled ATPase at pCa25)
Format: biochemical
CONDITION NOTES: median AC1.4 class, procedure of Example 39
MEASURED PROPERTY: Mean AC1.4

COMPOUND: O=C(NCc1cnc(-c2ccc(NCC3(c4ncccc4F)CCC3)nn2)s1)c1cnc(O)[nH]1
MEASURED PROPERTY: Mean AC1.4
RESULT: A (A=<1 uM)
--
COMPOUND: CC(O)c1cnc(-c2ccc(NCC3(c4ncccc4F)CCC3)nn2)s1 (stereo not shown)
MEASURED PROPERTY: Mean AC1.4
RESULT: B (B=1-10 uM)
--
COMPOUND: O=C(NC[C@@H](O)CO)c1cnc(-c2ccc(NCC3(c4ncccc4F)CCC3)nn2)s1
MEASURED PROPERTY: Mean AC1.4
RESULT: B (B=1-10 uM)
--
COMPOUND: O=C1NC[C@@H](C(=O)NCc2cnc(-c3ccc(NCC4(c5ncccc5F)CCC4)nn3)s2)N1
MEASURED PROPERTY: Mean AC1.4
RESULT: A (A=<1 uM)
--
COMPOUND: NC(=O)Cc1cnc(-c2ccc(NCC3(c4ncccc4F)CCC3)nn2)s1
MEASURED PROPERTY: Mean AC1.4
RESULT: B (B=1-10 uM)
--
COMPOUND: CC(=O)N1CCN[C@H](C(=O)NCc2cnc(-c3ccc(NCC4(c5ncccc5F)CCC4)nn3)s2)C1
MEASURED PROPERTY: Mean AC1.4
RESULT: A (A=<1 uM)
--
COMPOUND: COc1cccc(C2(Nc3ccc(-c4cccc(NS(C)(=O)=O)c4)nn3)CCC2)n1
MEASURED PROPERTY: Mean AC1.4
RESULT: B (B=1-10 uM)
--
COMPOUND: CNC(=O)Nc1cccc(-c2ccc(NCC3(c4ncccc4F)CCC3)nn2)c1
MEASURED PROPERTY: Mean AC1.4
RESULT: A (A=<1 uM)
--
COMPOUND: NC(=O)c1cc(-c2ccc(NCC3(c4ncccc4F)CCC3)nn2)on1
MEASURED PROPERTY: Mean AC1.4
RESULT: B (B=1-10 uM)
--
COMPOUND: CC(=O)Nc1ccc(-c2ccc(NCC3(c4ncccc4F)CCC3)nn2)cc1
MEASURED PROPERTY: Mean AC1.4
RESULT: A (A=<1 uM)
--
COMPOUND: O=C(CO)NCc1cnc(-c2ccc(NCC3(c4ncccc4F)CCC3)nn2)s1
MEASURED PROPERTY: Mean AC1.4
RESULT: A (A=<1 uM)
